tested_system: IDH1 R132H (Homo sapiens, UniProt O75874, R132H)
Sequence (O75874 whole entry R132H): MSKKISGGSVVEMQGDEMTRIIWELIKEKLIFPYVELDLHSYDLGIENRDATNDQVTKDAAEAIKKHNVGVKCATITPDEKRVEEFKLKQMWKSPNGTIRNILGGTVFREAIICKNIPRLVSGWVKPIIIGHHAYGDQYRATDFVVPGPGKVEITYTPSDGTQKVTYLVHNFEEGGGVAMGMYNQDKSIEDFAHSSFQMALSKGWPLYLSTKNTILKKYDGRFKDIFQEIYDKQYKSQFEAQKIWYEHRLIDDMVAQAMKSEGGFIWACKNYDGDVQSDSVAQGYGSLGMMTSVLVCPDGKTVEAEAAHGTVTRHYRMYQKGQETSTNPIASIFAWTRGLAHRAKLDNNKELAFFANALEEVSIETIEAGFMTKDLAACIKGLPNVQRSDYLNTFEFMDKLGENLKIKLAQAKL
assay_method_text: IDH1 R132H enzymatic assay (NADPH depletion coupled to diaphorase/resazurin)
Assay type: biochemical
applied_conditions: enzymatic inhibition, IDH1 R132H
measure_name: IC50

### Prompt Which IC50 is reported for this compound? CCc1cccc(CC)c1-n1c(C=C(C)C)c(C(=O)N2CCNC(CO)C2)cc(-c2nc(-c3ccc(Cl)cc3)cs2)c1=O (stereo not drawn)
### Response < 300 nM

### Prompt Moving on to CCc1cccc(CC)c1-n1c(C=C(C)C)c(C(=O)N2CCNCC2)cc(-c2ccn(-c3ccc(OC4CC4)cc3)n2)c1=O
### Response < 300 nM

### Prompt Moving on to CN1CCN(c2ccc(-n3c4c(cc(-c5nc(-c6ccc(Cl)cc6)cs5)c3=O)C(=O)CC(C)(C)C4)c(C(F)(F)F)c2)CC1
### Response 5000 to 20000 nM

----------
# pIC50 per record follows
tested_system: IDH1 R132H (Homo sapiens, UniProt O75874, R132H)
assay_method_text: IDH1 R132H enzymatic assay (NADPH depletion coupled to diaphorase/resazurin)
Type: biochemical
applied_conditions: IDH1 R132H enzymatic inhibition, IC50 class
pIC50: −log10 of the molar value.

> print(dat)
                                   compound                             tested.system   assay.value
1  CCc1cccc(CC)c1-n1c(C)c(C(=O)N2CCNCC2)cc(-c2nc(-c3ccc(Cl)cc3)cs2)c1=O  IDH1 R132H (Homo sapiens, UniProt O75874, R132H)        > 6.52
2  CCc1cccc(CC)c1-n1c(CC(C)C)c(C(=O)N2CC(C(=O)OC)NCC2C)cc(-c2nc(-c3ccc(Cl)cc3)cs2)c1=O (stereo not drawn)  IDH1 R132H (Homo sapiens, UniProt O75874, R132H)  5.30 to 6.00

### Prompt Which pIC50 is reported for this compound? CCc1cccc(CC)c1-n1c(CC(C)C)c(C(=O)N2CCNCC2c2ccccc2)cc(-c2nc(-c3ccc(Cl)cc3)cs2)c1=O (stereo not drawn)
### Response 6.00 to 6.52

### Prompt Moving on to CCc1ncc(OC)cc1-n1c(C=C(C)C)c(C(=O)N2CCNCC2)cc(-c2nc(-c3ccc(C(F)(F)F)cc3)cs2)c1=O
### Response > 6.52

### Prompt Moving on to CCc1cccc(CC)c1-n1c(CC(C)C)c(C(=O)NC[C@H](N)C(=O)O)cc(-c2nc(-c3ccc(Cl)cc3)cs2)c1=O
### Response 5.30 to 6.00

### Prompt Moving on to Cc1c(N)cccc1-n1c2c(cc(-c3nc(-c4ccc(Cl)cc4)cs3)c1=O)C(=O)CC(C)(C)C2
### Response 5.30 to 6.00

### Prompt Moving on to CCOc1ccccc1-n1c2c(cc(-c3nc(-c4ccc(Cl)cc4)cs3)c1=O)C(=O)CC(C)(C)C2
### Response 6.00 to 6.52

### Prompt Moving on to CCc1cccc(CC)c1-n1c2c(cc(-c3nc(-c4cccc(C(F)(F)F)c4)cs3)c1=O)C(=O)CC(C)(C)C2
### Response < 4.70

### Prompt Moving on to CCc1cccc(CC)c1-n1c(CC(C)C)c(C(=O)N2CCNCC2C)cc(-c2nc(-c3ccc(Cl)cc3)cs2)c1=O (stereo not drawn)
### Response 6.00 to 6.52

### Prompt Moving on to CCc1ccc(C)cc1-n1c(C=C(C)C)c(C(=O)N2CCNCC2)cc(-c2nc(-c3ccc(Cl)cc3)cs2)c1=O
### Response > 6.52

### Prompt Moving on to COc1ccc(Cl)c(-n2c(CC(C)C)c(C(=O)N3CCNCC3)cc(-c3nc(-c4ccc(Cl)cc4)cs3)c2=O)c1
### Response > 6.52

### Prompt Moving on to CCc1cccc(CC)c1-n1c(-c2ccn(-c3ccccc3)n2)c(C(=O)N2CCNCC2)cc(-c2nc(-c3ccc(Cl)cc3)cs2)c1=O
### Response 4.70 to 5.30

### Prompt Moving on to CCc1cccc(CC)c1-n1c(CC(C)C)c(C(=O)N2CCNC(C)(C(=O)O)C2)cc(-c2nc(-c3ccc(Cl)cc3)cs2)c1=O (stereo not drawn)
### Response 6.00 to 6.52

### Prompt Moving on to CCc1cccc(CC)c1-n1c(CC(C)C)c(C(=O)N2CCNCC2)cc(-c2nc(-c3ccc(C)cc3)c(C)s2)c1=O
### Response > 6.52

### Prompt Moving on to CCc1cccc(CC)c1-n1c(C=C(C)C)c(C(=O)N2CCNC(=O)C2(C)C)cc(-c2nc(-c3ccc(Cl)cc3)cs2)c1=O
### Response > 6.52

### Prompt Moving on to CCc1cccc(CC)c1-n1c(C)c(C(=O)NC2CCC(N)CC2)cc(-c2nc(-c3ccc(Cl)cc3)cs2)c1=O (stereo not drawn)
### Response 4.70 to 5.30

### Prompt Moving on to CCc1cccc(CC)c1-n1c(C=C(C)C)c(C(=O)N2CCNC(=O)C2)cc(-c2nc(-c3ccc(Cl)cc3)cs2)c1=O
### Response > 6.52

### Prompt Moving on to CCc1cccc(CC)c1-n1c(CC(C)C)c(C(=O)N2CCNC[C@H]2C)cc(-c2nc(-c3ccc(Cl)cc3)cs2)c1=O
### Response 6.00 to 6.52

----------
# pIC50 per record follows
tested_system: IDH1 R132C (Homo sapiens, UniProt O75874, R132C)
Sequence (O75874 whole entry R132C): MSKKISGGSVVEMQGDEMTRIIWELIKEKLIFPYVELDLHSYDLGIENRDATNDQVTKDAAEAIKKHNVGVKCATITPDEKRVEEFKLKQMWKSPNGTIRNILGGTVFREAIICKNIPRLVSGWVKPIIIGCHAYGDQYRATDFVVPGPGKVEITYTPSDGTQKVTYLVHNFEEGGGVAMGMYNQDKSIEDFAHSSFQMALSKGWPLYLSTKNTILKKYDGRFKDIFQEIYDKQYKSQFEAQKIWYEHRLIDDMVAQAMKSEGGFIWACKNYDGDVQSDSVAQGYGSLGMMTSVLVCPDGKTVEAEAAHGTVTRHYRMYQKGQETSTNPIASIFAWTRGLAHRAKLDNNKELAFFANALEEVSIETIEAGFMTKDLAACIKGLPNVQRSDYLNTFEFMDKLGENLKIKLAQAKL
assay_method_text: IDH1 R132C enzymatic assay (NADPH depletion coupled to diaphorase/resazurin)
Assay type: biochemical
applied_conditions: IDH1 R132C enzymatic inhibition, IC50 class
pIC50: −log10 of the molar value.

Here is how some compounds turned out for pIC50.
> print(dat)
                                   compound  measure.name   assay.value
1  CCc1cccc(CC)c1-n1c(CC(C)C)c(C(=O)NC(C)(C)CO)cc(-c2nc(-c3ccc(Cl)cc3)cs2)c1=O [Compound 54]         pIC50  6.00 to 6.52
2  CCOc1ccc(F)cc1-n1c(C=C(C)C)c(C(=O)N2CCNCC2)cc(-c2nc(-c3ccc(C(F)(F)F)cc3)cs2)c1=O [Compound 329]         pIC50        > 6.52
3  CCc1cccc(CC)c1-n1c(C=C(C)C)c(C(=O)N2CCCNC(=O)C2)cc(-c2ccn(-c3ccc(Cl)cc3)n2)c1=O [Compound 635]         pIC50        > 6.52

### Prompt Which pIC50 is reported for this compound? CCOc1ccc(F)cc1-n1c(CC(C)C)c(C(=O)N2CCNCC2)cc(-c2nc(-c3ccc(C(F)F)cc3)cs2)c1=O [Compound 686]
### Response 6.00 to 6.52

### Prompt Moving on to COc1ccc(OC)c(-n2c3c(cc(-n4cnc(-c5ccccc5)c4)c2=O)C(=O)CC(C)(C)C3)c1 [Compound 154]
### Response 4.70 to 5.30

### Prompt Moving on to CCc1cccc(CC)c1-n1c(O)c(C(=O)CC(C)C)cc(-c2nc(-c3ccc(Cl)cc3)cs2)c1=O [Compound 392]
### Response 4.70 to 5.30

----------
tested_system: IDH1 R132H (Homo sapiens, UniProt O75874, R132H)
assay_method_text: IDH1 R132H enzymatic assay (NADPH depletion coupled to diaphorase/resazurin)
Type: biochemical
applied_conditions: IDH1 R132H enzymatic inhibition, IC50 class
measure_name: IC50

> print(dat)
                                   compound                             tested.system  measure.name       assay.value
1  CCc1cccc(CC)c1-n1c(CC(C)C)c(C(=O)N2CCNCC2)cc(-c2nc(-c3ccc(C(F)(F)F)cc3)cs2)c1=O  IDH1 R132H (Homo sapiens, UniProt O75874, R132H)          IC50          < 300 nM
2  CCc1cccc(CC)c1-n1c(C)c(C(=O)N2CCN[C@H](C(=O)OC)C2)cc(-c2nc(-c3ccc(Cl)cc3)cs2)c1=O  IDH1 R132H (Homo sapiens, UniProt O75874, R132H)          IC50  5000 to 20000 nM
3  CCc1cccc(CC)c1-n1c(C=C(C)C)c(C(=O)N2CCNC(C)C2)cc(-c2nc(-c3ccc(Cl)cc3)cs2)c1=O (stereo not drawn)  IDH1 R132H (Homo sapiens, UniProt O75874, R132H)          IC50          < 300 nM
4  COc1ccc(OC)c(-n2c3c(cc(-c4nc(-c5ccc(Cl)cc5)c[nH]4)c2=O)C(=O)CC(C)(C)C3)c1  IDH1 R132H (Homo sapiens, UniProt O75874, R132H)          IC50   1000 to 5000 nM

### Prompt Which IC50 is reported for this compound? CC1(C)CC(=O)c2cc(-c3nc(-c4ccc(Cl)cc4)cs3)c(=O)n(-c3ccccc3Oc3ccccc3)c2C1
### Response < 300 nM

### Prompt Moving on to CC1(C)CC(=O)c2cc(-c3nc(-c4ccc(Cl)cc4)cs3)c(=O)n(-c3ccccc3N)c2C1
### Response 1000 to 5000 nM

### Prompt Moving on to CCc1cccc(CC)c1-n1c(C)c(C(=O)NCCOC)cc(-c2nc(-c3ccc(Cl)cc3)cs2)c1=O
### Response 1000 to 5000 nM

### Prompt Moving on to CCc1cccc(CC)c1-n1c(CC(C)C)c(C(=O)N2CCNCC2)cc(-c2nc(-c3ccc(Cl)cc3)cs2)c1=O
### Response < 300 nM
